Source: patent US8445676B2

study.target: JAK2 (Homo sapiens)
Sequence (O60674 whole entry): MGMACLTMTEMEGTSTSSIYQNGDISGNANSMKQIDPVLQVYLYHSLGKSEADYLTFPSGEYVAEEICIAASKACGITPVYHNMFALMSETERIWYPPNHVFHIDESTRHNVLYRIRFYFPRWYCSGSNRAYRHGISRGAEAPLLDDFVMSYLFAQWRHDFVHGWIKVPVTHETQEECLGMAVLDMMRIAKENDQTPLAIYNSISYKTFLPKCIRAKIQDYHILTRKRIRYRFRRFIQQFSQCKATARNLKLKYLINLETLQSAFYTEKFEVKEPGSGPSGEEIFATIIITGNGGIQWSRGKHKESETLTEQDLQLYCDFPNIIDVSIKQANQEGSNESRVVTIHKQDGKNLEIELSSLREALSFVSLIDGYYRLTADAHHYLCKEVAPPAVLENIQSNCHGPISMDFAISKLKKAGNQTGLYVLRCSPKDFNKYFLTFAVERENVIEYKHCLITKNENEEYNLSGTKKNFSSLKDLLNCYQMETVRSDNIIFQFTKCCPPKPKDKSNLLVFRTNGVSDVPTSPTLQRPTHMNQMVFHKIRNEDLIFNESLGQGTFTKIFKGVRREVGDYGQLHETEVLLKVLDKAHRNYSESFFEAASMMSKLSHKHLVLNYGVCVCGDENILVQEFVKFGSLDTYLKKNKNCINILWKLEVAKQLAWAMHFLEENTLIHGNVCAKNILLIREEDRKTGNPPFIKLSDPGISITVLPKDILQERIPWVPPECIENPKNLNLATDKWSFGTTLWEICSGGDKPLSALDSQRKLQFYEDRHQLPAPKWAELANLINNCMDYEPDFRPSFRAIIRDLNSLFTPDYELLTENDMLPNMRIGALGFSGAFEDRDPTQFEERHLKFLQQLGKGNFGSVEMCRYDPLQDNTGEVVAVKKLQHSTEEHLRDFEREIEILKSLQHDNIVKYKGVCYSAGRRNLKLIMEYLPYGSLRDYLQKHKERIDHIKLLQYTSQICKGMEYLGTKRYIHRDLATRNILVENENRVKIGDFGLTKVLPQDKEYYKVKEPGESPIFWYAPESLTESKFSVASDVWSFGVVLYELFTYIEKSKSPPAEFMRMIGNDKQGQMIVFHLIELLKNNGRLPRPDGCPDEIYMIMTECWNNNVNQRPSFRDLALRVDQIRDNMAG
experimental.details: JAK2 Tyrosine Kinase Assay
Type: biochemical
condition.context: list of named compounds; read-out: IC50 in the JAK2 assay
test.readout: IC50

Observe how each entry below is paired with its result.
# molecule, study.target, IC50
rows = [
    ("CC(=O)NC(C(=O)N1CCN(c2nc(Nc3cc(C)[nH]n3)c3cccn3n2)CC1)c1ccccc1 (stereo not drawn)", "JAK2 (Homo sapiens)", "≤ 5 nM"),
    ("Cc1cc(Nc2nc(N3CCN(C(=O)Cc4c(F)cccc4F)CC3)nn3cccc23)n[nH]1", "JAK2 (Homo sapiens)", "≤ 5 nM"),
]

# next molecule below
Value lookup for IC50; key = `Cc1cc(Nc2nc(N3CCN(C(=O)C4(C)CC4)CC3)nn3cccc23)n[nH]1` ≤ 5 nM
